- Test system: Caco-2 cells
- METHOD: Membrane permeability test using Caco-2 cells with preincubation
- Format: in vitro ADME
- PROTOCOL CONDITIONS: Caco-2 cells, preincubation 20 to 24 hours; apical FaSSIF/HBSS 1% DMSO pH 6.0, basal HBSS 4% BSA pH 7.4; basal sample at 180 minutes
Starred links: 1 amine or outer side, 2 acyl side, 3 side chain; linkers in the order of their positions; H or OH if unused. Positions of bridges follow the written chain, without caps; N, C: chain ends. Non-standard residues stand in square brackets, D forms with d. Residues, ends and D or L forms follow the SMILES beside them. *: point of attachment. NMeF = CN[C@@H](Cc1ccccc1)C(=O)O; NMeGABA = CN(CCCC(=O)[*:2])[*:1]; hPhe = N[C@@H](CCc1ccccc1)C(=O)O; NMeL = CN[C@@H](CC(C)C)C(=O)O; NMeA = CN[C@@H](C)C(=O)O; Piperidide = C1CCN(*)CC1; tBu = CC(C)(C)*
RECORDED METRIC: Caco2 Papp (10^-6 cm/sec)

Considering CC[C@H](C)[C@@H]1NC(=O)[C@H](COC(C)(C)C)NC(=O)[C@H]([C@@H](C)O)NC(=O)[C@H](Cc2ccccc2)N(C)C(=O)[C@H](C)N(C)C(=O)[C@H](CC(C)C)N(C)C(=O)[C@H](CCc2ccccc2)NC(=O)[C@@H]2CCCN2C(=O)[C@H]([C@@H](C)CC)NC(=O)[C@H](CC(C)C)N(C)C(=O)[C@H](C)NC(=O)CCCN(C)C(=O)C[C@@H](C(=O)N2CCCCC2)NC(=O)[C@H](CC(C)C)N(C)C1=O [pd022] ([NMeGABA]A[NMeL]IP[hPhe][NMeL][NMeA][NMeF]TS(tBu)I[NMeL]D-Piperidide; lactam N-14) , its Caco2 Papp (10^-6 cm/sec) with Caco-2 cells was recorded as 0.15 10^-6 cm/sec
